# TESTED SYSTEM: Trypsin from bovine pancreas (Bos taurus)
# Construct: from tissue; host or cells: bovine pancreas
# Sequence (P00760 24-246): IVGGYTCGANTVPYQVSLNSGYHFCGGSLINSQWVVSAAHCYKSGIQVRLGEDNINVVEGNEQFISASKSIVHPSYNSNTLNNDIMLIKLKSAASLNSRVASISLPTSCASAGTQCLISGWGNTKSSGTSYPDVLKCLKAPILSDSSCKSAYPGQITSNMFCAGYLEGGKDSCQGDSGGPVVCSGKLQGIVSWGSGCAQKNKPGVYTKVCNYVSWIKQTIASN
# MEASUREMENT DESCRIPTION: Determination of the specificity of the inhibitors (trypsin versus thrombin)
# Assay type: biochemical
# TEST SETTINGS: ratio of the Ki values for trypsin and thrombin; Ki calculated from IC50
TEST READOUT: Specificity thrombin/trypsin

Example entries begin here.
COc1cc(C)c(S(=O)(=O)NC(CC(=O)OC(C)(C)C)C(=O)NC(Cc2ccc(C(=N)N)cc2)C(=O)N2CCCCC2)c(C)c1C (centres unmarked) :: 297
N=C(N)c1ccc(C[C@H](NC(=O)[C@H](CC(N)=O)NS(=O)(=O)c2ccc3ccccc3c2)C(=O)N2CCCCC2)cc1 :: 48
COc1cc2ccc(S(=O)(=O)N[C@@H](CC(=O)O)C(=O)N[C@H](Cc3ccc(C(=N)N)cc3)C(=O)N3CCCCC3)cc2cc1OC :: 230
COc1cc(C)c(S(=O)(=O)N[C@@H](CC(=O)N[C@@H]2O[C@H](C(=O)O)[C@@H](O)[C@H](O)[C@H]2O)C(=O)N[C@H](Cc2ccc(C(=N)N)cc2)C(=O)N2CCCCC2)c(C)c1C :: 4106
COc1cc(C)c(S(=O)(=O)N[C@@H](CC(=O)NCCCC(=O)O)C(=O)N[C@H](Cc2ccc(C(=N)N)cc2)C(=O)N2CCCCC2)c(C)c1C :: 1810

q: Using the record for COc1cc(C)c(S(=O)(=O)N[C@@H](CC(=O)O)C(=O)N[C@H](Cc2ccc(C(=N)N)cc2)C(=O)N2CCCCC2)c(C)c1C , report its Specificity thrombin/trypsin.
a: 125

q: // same read-out, input: N=C(N)c1ccc(CC(NC(=O)CNS(=O)(=O)c2ccc3ccccc3c2)C(=O)N2CCCCC2)cc1 (centres unmarked) [Napap, reference compound]
a: 24

q: Then what about the compound COc1cc(C)c(S(=O)(=O)N[C@@H](CC(=O)OC(C)C)C(=O)N[C@H](Cc2ccc(C(=N)N)cc2)C(=O)N2CCCCC2)c(C)c1C ?
a: 378
